Consider the following binders; for each one, report its SI (stoichiometry of inhibition).
Target or system: T1, Recombinant human tissue kallikrein 1 (KLK1), wild type (human, UniProt P06870 25-262)
T1 construct: tissue kallikrein 1 (KLK1), human, residues 25-262; Vector pE-SUMO3; also called kallikrein-related peptidase 1
Assay comment: stoichiometry of inhibition by titration of residual protease activity; 1 µM protease with increasing kallistatin variant in PBS, 0.1% PEG 8000, 2 h, 37 °C; residual activity on 0.2 mM H-D-Val-Leu-Arg-AMC; intercept on the abscissa
Condition parameters: both partners purified

# binder rKAL-R394D (natural protein, human, UniProt P29622 45-427, looked up, kallistatin (SERPINA4), human, residues 45-427; source: E. coli BL21 (DE3), purified (HisTrap FF crude, SENP2 digestion, HiTrap SP)) GSPSLKIAPANADFAFRFYYLIASETPGKNIFFSPLSISAAYAMLSLGACSHSRSQILEGLGFNLTELSESDVHRGFQHLLHTLNLPGHGLETRVGSALFLSHNLKFLAKFLNDTMAVYEAKLFHTNFYDTVGTIQLINDHVKKETRGKIVDLVSELKKDVLMVLVNYIYFKALWEKPFISSRTTPKDFYVDENTTVRVPMMLQDQEHHWYLHDRYLPCSVLRMDYKGDATVFFILPNQGKMREIEEVLTPEMLMRWNNLLRKRNFYKKLELHLPKFSISGSYVLDQILPRLGFTDLFSKWADLSGITKQQKLEASKSFHKATLDVDEAGTEAAAATSFAIKFFSAQTNDHILRFNRPFLVVIFSTSTQSVLFLGKVVDPTKP ; its SI (stoichiometry of inhibition) = 1.8

# binder Recombinant human kallistatin (rKAL), wild type (natural protein, UniProt P29622 45-427, looked up, kallistatin (SERPINA4), human, residues 45-427; Vector pE-SUMO3; purified on a HisTrap column, so the SUMO3 fusion probably carries a His tag that leaves with SUMO3; During storage or crystallisation part of the protein is cleaved between F387 and F388 (P2-P1) by an unknown protease; the crystal structures hold this cleaved form; also called rKAL-WT; SERPINA4; source: E. coli BL21 (DE3), purified …) GSPSLKIAPANADFAFRFYYLIASETPGKNIFFSPLSISAAYAMLSLGACSHSRSQILEGLGFNLTELSESDVHRGFQHLLHTLNLPGHGLETRVGSALFLSHNLKFLAKFLNDTMAVYEAKLFHTNFYDTVGTIQLINDHVKKETRGKIVDLVSELKKDVLMVLVNYIYFKALWEKPFISSRTTPKDFYVDENTTVRVPMMLQDQEHHWYLHDRYLPCSVLRMDYKGDATVFFILPNQGKMREIEEVLTPEMLMRWNNLLRKRNFYKKLELHLPKFSISGSYVLDQILPRLGFTDLFSKWADLSGITKQQKLEASKSFHKATLDVDEAGTEAAAATSFAIKFFSAQTNRHILRFNRPFLVVIFSTSTQSVLFLGKVVDPTKP ; its SI (stoichiometry of inhibition) = 1.4

The measurements presented in this section are drawn from paper PMC7356578.
